- Target or test system: oxidized PTP1B (Homo sapiens)
- Sequence (P18031 whole entry): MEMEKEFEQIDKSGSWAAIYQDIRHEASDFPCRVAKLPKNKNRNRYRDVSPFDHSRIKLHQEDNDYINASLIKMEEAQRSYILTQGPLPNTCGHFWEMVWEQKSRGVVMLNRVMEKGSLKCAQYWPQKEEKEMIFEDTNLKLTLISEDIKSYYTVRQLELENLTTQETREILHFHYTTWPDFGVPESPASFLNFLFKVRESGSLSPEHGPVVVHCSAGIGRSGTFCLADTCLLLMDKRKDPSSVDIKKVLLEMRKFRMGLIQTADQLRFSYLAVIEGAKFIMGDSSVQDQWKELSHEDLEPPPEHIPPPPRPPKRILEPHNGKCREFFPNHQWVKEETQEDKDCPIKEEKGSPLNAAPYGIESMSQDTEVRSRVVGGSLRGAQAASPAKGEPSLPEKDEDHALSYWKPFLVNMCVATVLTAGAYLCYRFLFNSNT
- Assay details: Adduct formation with oxidized PTP1B, mass spectroscopy analysis;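 also: detection of covalent adducts formed between each compound and oxidized PTP1B, assessed by mass spectroscopy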
- Type: binding
- Recorded conditions: adduct seen by mass spectroscopy analysis
Property name: REACTIVITY WITH OXIDIZED PTP1B

Compound	Target or test system	Property name	Assay value
O=C1CS(=O)(=O)c2ccccc21	oxidized PTP1B (Homo sapiens)	REACTIVITY WITH OXIDIZED PTP1B	Adduct
O=C1CC(=O)N(c2cc(-c3ccccc3)ccc2O)C1	oxidized PTP1B (Homo sapiens)	REACTIVITY WITH OXIDIZED PTP1B	Adduct
COc1ccc(-c2ccccc2)cc1N1CC(=O)CC1=O	oxidized PTP1B (Homo sapiens)	REACTIVITY WITH OXIDIZED PTP1B	Adduct
O=C1CC(=O)N(Cc2ccccc2)C1	oxidized PTP1B (Homo sapiens)	REACTIVITY WITH OXIDIZED PTP1B	Adduct
O=C1CS(=O)(=O)Nc2ccccc21	oxidized PTP1B (Homo sapiens)	REACTIVITY WITH OXIDIZED PTP1B	No Adduct
O=C1C/C(=C/c2ccccc2)S(=O)(=O)C1	oxidized PTP1B (Homo sapiens)	REACTIVITY WITH OXIDIZED PTP1B	No adduct
O=C1CC(=O)c2ccccc2N1	oxidized PTP1B (Homo sapiens)	REACTIVITY WITH OXIDIZED PTP1B	No Adduct
O=C1CC(=O)C(c2ccccc2)C1 (stereo not shown)	oxidized PTP1B (Homo sapiens)	REACTIVITY WITH OXIDIZED PTP1B	No adduct
COc1ccc(-c2ccccc2)cc1CN1CC(=O)CC1=O	oxidized PTP1B (Homo sapiens)	REACTIVITY WITH OXIDIZED PTP1B	Adduct
O=C1CC(=O)N(c2ccccc2)C1	oxidized PTP1B (Homo sapiens)	REACTIVITY WITH OXIDIZED PTP1B	Adduct
O=C1CC(c2ccccc2)S(=O)(=O)C1 (stereo not shown)	oxidized PTP1B (Homo sapiens)	REACTIVITY WITH OXIDIZED PTP1B	No adduct
O=C1CC(=O)c2ccccc21	oxidized PTP1B (Homo sapiens)	REACTIVITY WITH OXIDIZED PTP1B	Adduct
O=C1CS(=O)(=O)c2ccccc2N1	oxidized PTP1B (Homo sapiens)	REACTIVITY WITH OXIDIZED PTP1B	No Adduct
O=C1CC(Cc2ccccc2)S(=O)(=O)C1 (stereo not shown)	oxidized PTP1B (Homo sapiens)	REACTIVITY WITH OXIDIZED PTP1B	No adduct
O=C1CN(c2ccccc2)S(=O)(=O)C1	oxidized PTP1B (Homo sapiens)	REACTIVITY WITH OXIDIZED PTP1B	No adduct
CN1C(=O)CS(=O)(=O)c2ccccc21	oxidized PTP1B (Homo sapiens)	REACTIVITY WITH OXIDIZED PTP1B	No Adduct
O=C1CS(=O)(=O)N(Cc2ccccc2)c2ccccc21	oxidized PTP1B (Homo sapiens)	REACTIVITY WITH OXIDIZED PTP1B	No Adduct
O=C1CCN(Cc2ccccc2)C(=O)C1	oxidized PTP1B (Homo sapiens)	REACTIVITY WITH OXIDIZED PTP1B	Adduct
CC1(C)CC(=O)CC(=O)C1 [drawing 1]	oxidized PTP1B (Homo sapiens)	REACTIVITY WITH OXIDIZED PTP1B	No adduct
O=C1CS(=O)(=O)Cc2ccccc21	oxidized PTP1B (Homo sapiens)	REACTIVITY WITH OXIDIZED PTP1B	Adduct
O=C1CC(=O)/C(=C\c2ccccc2)C1	oxidized PTP1B (Homo sapiens)	REACTIVITY WITH OXIDIZED PTP1B	No adduct
CN1c2ccccc2C(=O)CS1(=O)=O	oxidized PTP1B (Homo sapiens)	REACTIVITY WITH OXIDIZED PTP1B	Adduct
O=C1CCN(c2ccccc2)C(=O)C1	oxidized PTP1B (Homo sapiens)	REACTIVITY WITH OXIDIZED PTP1B	Adduct
COc1ccc(-c2ccccc2)cc1N1CC(=O)CS1(=O)=O	oxidized PTP1B (Homo sapiens)	REACTIVITY WITH OXIDIZED PTP1B	No adduct
O=C1CC(=O)C(Cc2ccccc2)C1 (stereo not shown)	oxidized PTP1B (Homo sapiens)	REACTIVITY WITH OXIDIZED PTP1B	No adduct
O=C1CC(=O)N(Cc2cc(-c3ccccc3)ccc2O)C1	oxidized PTP1B (Homo sapiens)	REACTIVITY WITH OXIDIZED PTP1B	Adduct
O=C1CN(Cc2ccccc2)S(=O)(=O)C1	oxidized PTP1B (Homo sapiens)	REACTIVITY WITH OXIDIZED PTP1B	No adduct
CN1C(=O)CC(=O)c2ccccc21	oxidized PTP1B (Homo sapiens)	REACTIVITY WITH OXIDIZED PTP1B	No Adduct

All values here come from patent US9977024B2.
